Reported values of IC50 for individual entries
tgt: DNA-PK phosphorylation at Serine 2056 (Homo sapiens)
Construct: FaDu cells were purchased from ATCC; host or cells: FaDu
experiment.notes: Cellular Assay for Inhibition of DNA-PK Phosphorylation at Serine 2056 in FaDu cells (sandwich ELISA, neocarzinostatin)
Format: cell-based
conditions.used: pSer2056 DNA-PK, neocarzinostatin 1 μg/mL, Table 1

smiles.input: O=C(COc1cnc(N[C@H]2CC[C@@H](Oc3nc(N4CCOCC4)cc4ncccc34)CC2)nc1)N1CC(O)C1
tgt: DNA-PK phosphorylation at Serine 2056 (Homo sapiens)
recorded.endpoint: IC50
assay.value: 100 to 1000 nM
//
smiles.input: O=C(O)COc1cnc(N[C@H]2CC[C@@H](Oc3nc(N4CCOCC4)cc4ncc(C(=O)O)cc34)CC2)nc1
tgt: DNA-PK phosphorylation at Serine 2056 (Homo sapiens)
recorded.endpoint: IC50
assay.value: 10000 to 30000 nM
//
smiles.input: O=C(O)c1cnc2cc(N3CCOCC3)nc(O[C@H]3CC[C@@H](Nc4ncccn4)CC3)c2c1
tgt: DNA-PK phosphorylation at Serine 2056 (Homo sapiens)
recorded.endpoint: IC50
assay.value: 1000 to 10000 nM

Now consider the entry below.
stdin: Could you tell me which IC50 is on file for Cn1c(=O)n(C)c2nc(N[C@H]3CC[C@@H](Oc4nc(N5CCOCC5)cc5ncccc45)CC3)ncc21 ?
stdout: < 100 nM

FYI, the data here is from patent US20240239790A1.
